From: PubChem BioAssay AID256

# Test system: CD2F1 mice, L1210 leukemia ip, survival T/C
# measurement.protocol: NCI In Vivo Anticancer Drug Screen. Data for tumor model L1210 Leukemia (intraperitoneal) in CD2F1 (CDF1) mice
# protocol.conditions: endpoint: mean survival time; dose: 25.0 mg/kg/injection; schedule: Q04DX003 (ip); vehicle: saline
# Method: The antitumor activity of compounds was measured in mice bearing transplantable tumors. Survival or tumor size were measured and the results are expressed as the measurement made in the treated group (T) divided by the measurement made in the vehicle treated control group (C). The tumor model used in this assay is L1210 Leukemia (intraperitoneal) in CD2F1 (CDF1) mice
Toxic doses and inconclusive results are not listed. The calls were made as follows: active = survival T/C of 150% or more; inactive = T/C below 125% in these data.
Pick one: active, inactive

Returns: the outcome recorded for Nc1ncn(C2OC(CO)C(O)C2O)c(=O)n1 (configuration not stated) in this assay.
active

Call for entry OCP(CO)CO.[Cl][Hg][Cl] :
inactive

Any idea what this test logged for CCC(C)N(CCCOC(=O)c1ccc(N)cc1)C(C)CC (configuration not stated) ?
inactive

How did this test come out for CCCC(CC)(C[NH-])C[NH-].[Cl][Pt+2][Cl] ?
inactive

What did the test return for CC(C)NC(=O)CCCCn1c(=O)c2ccccc2c(=O)n1C ?
inactive

Dear colleague, could you share the recorded outcome for CCN(CC)Cc1cc(Nc2nc(NC3CCC(N(C)C)CC3)c3ccccc3n2)ccc1OC (configuration not stated) when you have a moment?
inactive

// param item: CC(C(=O)N1c2ccccc2Sc2ccccc21)[N+](C)(C)C (configuration not stated) ; yields the recorded call
inactive

---

# System: CD2F1 mice, L1210 leukemia ip, survival T/C
# measurement.protocol: NCI In Vivo Anticancer Drug Screen. Data for tumor model L1210 Leukemia (intraperitoneal) in CD2F1 (CDF1) mice
# protocol.conditions: endpoint: mean survival time; dose: 400.0 mg/kg/injection; schedule: Q04DX002 (ip); vehicle: saline with Tween-80; higher = longer survival
# Protocol: The antitumor activity of compounds was measured in mice bearing transplantable tumors. Survival or tumor size were measured and the results are expressed as the measurement made in the treated group (T) divided by the measurement made in the vehicle treated control group (C). The tumor model used in this assay is L1210 Leukemia (intraperitoneal) in CD2F1 (CDF1) mice
Toxic doses and inconclusive results are not listed.
Hi there, I'd appreciate the recorded T/C for every entry that follows.

Look at this compound and give its reported T/C. O=C1c2ccccc2C(=O)N1c1nc2ccccc2s1
100 % of control

GET /values?readout=T/C&item= COc1ccc(NC(=O)Oc2cc(C(C)C)ccc2C)cc1
94 % of control

Would you kindly share the measured T/C for O=c1oc2ccccc2c2ccccc12 ?
101 % of control

Reported T/C for CCOc1ccccc1OC(=O)Nc1ccc(OC)cc1 : what is it?
98 % of control

Which measured T/C value corresponds to O=C1NCC(C2CC2)(C2CC2)O1 ?
100 % of control

Find the recorded T/C belonging to CC/C=C/C(C)OC(=N)C(Cl)(Cl)Cl (centres undefined) and report it.
97 % of control

Using the record for NC(=O)c1cc(NCCN2CCCCC2)c([N+](=O)[O-])cc1[N+](=O)[O-] , report its T/C.
95 % of control

Consider the compound shown here: Cc1cccc(NC(=O)COc2ccc(Cl)cc2C)c1 What is its recorded T/C?
98 % of control

Returns the measured T/C for the input compound. Input: Nc1ccnc(SCCCOc2ccccc2)n1
97 % of control

---

# Test system: CD2F1 mice, L1210 leukemia ip, survival T/C
# measurement.protocol: NCI In Vivo Anticancer Drug Screen. Data for tumor model L1210 Leukemia (intraperitoneal) in CD2F1 (CDF1) mice
# protocol.conditions: endpoint: mean survival time; dose: 50.0 mg/kg/injection; schedule: Q04DX003 (ip); vehicle: saline with Tween-80; higher = longer survival
Inconclusive results and toxic doses are left out.
Please provide measured T/C for the entries that follow.

What value of measured T/C is listed for NCc1c(Cl)c(Cl)c(Cl)c(CN)c1Cl ?
100 % of control

Return reported T/C; argument: Cc1cccc([N+](=O)[O-])n1
95 % of control

So what does the record say about T/C for CCCCC(CC)CNCC(CC)CCCC (stereo not given) ?
93 % of control

Requested read-out: T/C. Entry: CN(C)/C(=C\C(=O)c1ccccc1)c1ccccc1
108 % of control

Consider the molecule Cc1ccc(C)c(C(=O)CCCCl)c1 and give its measured T/C.
96 % of control

Need T/C, item NC(=S)Nc1ccccn1
102 % of control

Requested read-out: T/C. Entry: O=C(C=C(C(F)(F)F)C(F)(F)F)c1ccco1
94 % of control

For the molecule shown here, CC(=O)N(C(C)=O)c1ccc2c3c(cccc13)CC2 , give the reported T/C.
110 % of control

Entry CC#CC(=O)SCCNC(=O)CC : reported T/C = ?
106 % of control

# lookup: T/C of Cc1ccc(S(=O)(=O)OC(C#N)c2ccccc2)cc1 (stereo not given)
102 % of control

Which T/C value is on record for O=C(O)c1cc[c]([Hg][S]c2ncnc3nc[nH]c23)cc1 ?
104 % of control

Requested read-out: T/C. Entry: Cc1sc2ncnc(Cl)c2c1C
114 % of control

Which T/C reading was recorded for the molecule O=[N+]([O-])c1ccc(S(=O)(=O)OCc2ccccc2OS(=O)(=O)c2ccc([N+](=O)[O-])cc2)cc1 ?
106 % of control

What value of measured T/C is listed for CCCCc1ccc(O)c(CN2CCCCC2)c1 ?
102 % of control

Look up T/C: CCOc1ccc(-n2c(-c3ccc(Br)cc3)csc2=NC(=O)c2ccccc2F)cc1
94 % of control

---

# Tested on: CD2F1 mice, L1210 leukemia ip, survival T/C
# measurement.protocol: NCI In Vivo Anticancer Drug Screen. Data for tumor model L1210 Leukemia (intraperitoneal) in CD2F1 (CDF1) mice
# protocol.conditions: endpoint: mean survival time; dose: 400.0 mg/kg/injection; schedule: Q01DX001 (ip); vehicle: saline; higher = longer survival
Inconclusive results and toxic doses are left out.
Exercise: for every item that follows, state its recorded T/C.

Entry O=C(O)/C=C/CC(=O)O has what T/C?
101 % of control

Any idea what T/C was measured for COc1ccc(CCNC(=O)Cc2cc(OC)c(OC)cc2[N+](=O)[O-])cc1OC ?
94 % of control

Requested field: T/C. Item: OC12CC3C4CC(O1)C1C4CC3C12 (configuration not stated)
96 % of control

Please give the measured T/C for this compound: Cc1ccc2nc(O)cc(=O)n2c1
94 % of control

Bench note: what T/C did Cc1nc(C)c2c(n1)Oc1ccc3ccccc3c1C2 show?
97 % of control

Item under review: CC1=CC=CNC1(N)Br (configuration not stated) . Reported T/C?
100 % of control

Sample O=C(O)C(=O)O.O=C(O)C(=O)O.[Th] — what was its T/C?
97 % of control

---

# System: CD2F1 mice, L1210 leukemia ip, survival T/C
# measurement.protocol: NCI In Vivo Anticancer Drug Screen. Data for tumor model L1210 Leukemia (intraperitoneal) in CD2F1 (CDF1) mice
# protocol.conditions: endpoint: mean survival time; dose: 6.25 mg/kg/injection; schedule: Q01DX009 (ip); vehicle: saline; higher = longer survival
Inconclusive results and toxic doses are left out.
Kindly supply the reported T/C values for the records listed here.

I have this compound here, Nc1cc(N)c2cccnc2c1O , and I need its recorded T/C.
101 % of control

Any idea what its T/C is? The compound is CN(C)CCCC1c2ccccc2Oc2ccc(C(F)(F)F)cc21 (centres undefined)
94 % of control

// query T/C value for entry COc1ncnc2c1c(C#N)cn2C1OC(CO)C(O)C1O (centres undefined)
117 % of control

Name the reported T/C value associated with the compound Nc1ccn([C@@H](C=O)O[C@@H](C=O)CO)c(=O)n1
105 % of control

---

# System: CD2F1 mice, L1210 leukemia ip, survival T/C
# measurement.protocol: NCI In Vivo Anticancer Drug Screen. Data for tumor model L1210 Leukemia (intraperitoneal) in CD2F1 (CDF1) mice
# protocol.conditions: endpoint: mean survival time; dose: 25.0 mg/kg/injection; schedule: Q01DX001 (ip); vehicle: saline; higher = longer survival
Toxic doses and inconclusive results are not listed.
Could you please report measured T/C for the items listed next?

Give T/C (CD2F1 mice, L1210 leukemia ip, survival T/C) of the following compound: CCOC(=O)c1cc(C[N+](C)(C)C)oc1C
96 % of control

What is its T/C for CD2F1 mice, L1210 leukemia ip, survival T/C? Entry: NCCCCCC(=O)O
98 % of control

Give the reported T/C for CCCCN(CCCC)CCCN(CCCOS(C)(=O)=O)CCCOS(C)(=O)=O (system: CD2F1 mice, L1210 leukemia ip, survival T/C).
114 % of control

Given the entry CSc1ncnc2c1ncn2C1OC(CO)C(O)C1O (stereo not given) , what T/C was observed with CD2F1 mice, L1210 leukemia ip, survival T/C?
118 % of control

Value wanted: T/C (CD2F1 mice, L1210 leukemia ip, survival T/C) of entry Oc1c(Br)cc(Br)cc1/C=N/c1nc(-c2ccccc2)cs1.Oc1c(Br)cc(Br)cc1/C=N/c1nc(-c2ccccc2)cs1.[Co]
100 % of control
